Assay: logp (HCOOH), physicochemical characterization
Conditions: HCOOH (formic acid)
Measured chromatographic logP, listed per entry for reference.
Hey, just send me the number, nothing else.

{"compound": "Cc1ccc2c(c1)[C@H](Nc1cnc(S(C)(=O)=O)nc1C(N)=O)[C@@H](C)C2", "chromatographic logP": 2.21}
{"compound": "CCc1ccc2c(c1)C(Nc1cnc(C#N)nc1)CCO2 (stereo not drawn)", "chromatographic logP": 2.8}

Alright, here's another compound for you.
compound `FC(F)(F)c1ncc(N[C@@H]2CCc3ccccc32)cn1` , chromatographic logP observed: 3.05
